// provenance: ChEMBL document CHEMBL1156129

PROCEDURE DETAILS: Plasma concentration in Beagle dog at 10 mg/kg, po after 0.5 hrs
Assay type: ADME, organism-based, Canis lupus familiaris
Design: dose 10 mg/kg, route oral
RECORDED METRIC: concentration at 0.5 h
Number first, unit second: that is the form wanted.

Exercise: Fill in reported concentration at 0.5 h for this entry: `Cc1c(N2[C@@H]3CC[C@H]2C[C@@](C)(O)C3)ccc(C#N)c1Cl`
Solution: 592 ng/mL

* * *

PROCEDURE DETAILS: Plasma concentration in Sprague-Dawley rat at 1 mg/kg, iv after 1 min
Format: ADME, organism-based
Parameters: dose 1 mg/kg, route intravenous
RECORDED METRIC: concentration at 1 min (µg/mL)
One number for each entry, in µg/mL.

Exercise: Fill in reported concentration at 1 min for this entry: `Cc1c(N2[C@@H]3CC[C@H]2C[C@@](C)(O)C3)ccc(C#N)c1Cl`
Solution: 0.824

* * *

PROCEDURE DETAILS: Plasma concentration in Sprague-Dawley rat at 1 mg/kg, iv after 120 mins
Type: ADME, organism-based
Design: dose 1 mg/kg, route intravenous
RECORDED METRIC: concentration at 2 h

Exercise: Fill in reported concentration at 2 h for this entry: `Cc1c(N2[C@@H]3CC[C@H]2C[C@@](C)(O)C3)ccc(C#N)c1Cl`
Solution: 74.3 ng/mL

* * *

Provide the reported pKi of each item.
PROCEDURE DETAILS: Binding affinity to androgen receptor in hamster DDT cells by scintillation counting
Type: cell-based, Cricetinae
Numbers only.

N#Cc1ccc(N2[C@@H]3CC[C@H]2C[C@]2(CO2)C3)c2ccccc12; 7.4
C#C[C@]1(O)C[C@H]2CC[C@@H](C1)N2c1ccc(C#N)c2ccccc12; 7
CC(C)(O)C(=O)Nc1ccc([N+](=O)[O-])c(C(F)(F)F)c1 [HYDROXYFLUTAMIDE]; 7.3
N#Cc1ccc(N2[C@@H]3CC[C@H]2C[C@@H](O)C3)cc1Cl; 7
N#Cc1ccc(N2[C@@H]3CC[C@H]2C[C@](O)(CO)C3)c2ccccc12; 6.9

Continue with the molecule presented below.
Exercise: Fill in reported pKi for this entry: CC(C)C(=O)Nc1ccc([N+](=O)[O-])c(C(F)(F)F)c1 [FLUTAMIDE]
Solution: 6.2

* * *

PROCEDURE DETAILS: Plasma concentration in Beagle dog at 10 mg/kg, po after 24 hrs
Type: ADME, organism-based, Canis lupus familiaris
Set-up: dose 10 mg/kg, route oral
RECORDED METRIC: concentration at 24 h (ng/mL)
Answers are plain numbers, in ng/mL.

Exercise: Fill in reported concentration at 24 h for this entry: `Cc1c(N2[C@@H]3CC[C@H]2C[C@@](C)(O)C3)ccc(C#N)c1Cl`
Solution: 3.2

* * *

PROCEDURE DETAILS: Plasma concentration in Sprague-Dawley rat at 10 mg/kg, po after 60 mins
Type: ADME, organism-based
Parameters: dose 10 mg/kg, route oral
RECORDED METRIC: concentration at 1 h

Exercise: Fill in reported concentration at 1 h for this entry: `Cc1c(N2[C@@H]3CC[C@H]2C[C@@](C)(O)C3)ccc(C#N)c1Cl`
Solution: 0.263 µg/mL

* * *

Provide the reported bioavailability of each item.
PROCEDURE DETAILS: Oral bioavailability in dog
Type: ADME, organism-based, Canis lupus familiaris
RUN PARAMETERS: in vivo
Give bare numbers, in %.

C[C@]1(O)C[C@H]2CC[C@@H](C1)N2c1ccc(C#N)c2ccccc12; 52

Continue with the compound presented below.
Exercise: Fill in reported bioavailability for this entry: `Cc1c(N2[C@@H]3CC[C@H]2C[C@@](C)(O)C3)ccc(C#N)c1Cl`
Solution: 56

* * *

PROCEDURE DETAILS: Cmax in Sprague-Dawley rat at 10 mg/kg, po
Assay type: ADME, organism-based
Set-up: dose 10 mg/kg, route oral
RUN PARAMETERS: in vivo
RECORDED METRIC: Cmax (ng/mL)
Give bare numbers, in ng/mL.

Exercise: Fill in reported Cmax for this entry: `Cc1c(N2[C@@H]3CC[C@H]2C[C@@](C)(O)C3)ccc(C#N)c1Cl`
Solution: 421

* * *

PROCEDURE DETAILS: Plasma concentration in Beagle dog at 10 mg/kg, po after 6 hrs
Type: ADME, organism-based, Canis lupus familiaris
Design: dose 10 mg/kg, route oral
RECORDED METRIC: concentration at 6 h (ng/mL)
One number for each entry, in ng/mL.

Exercise: Fill in reported concentration at 6 h for this entry: `Cc1c(N2[C@@H]3CC[C@H]2C[C@@](C)(O)C3)ccc(C#N)c1Cl`
Solution: 104

* * *

PROCEDURE DETAILS: Plasma concentration in Beagle dog at 1 mg/kg, iv after 0.5 hrs
Type: ADME, organism-based, Canis lupus familiaris
Set-up: dose 1 mg/kg, route intravenous
RECORDED METRIC: concentration at 0.5 h (ng/mL)
Numbers only, in ng/mL.

Exercise: Fill in reported concentration at 0.5 h for this entry: `Cc1c(N2[C@@H]3CC[C@H]2C[C@@](C)(O)C3)ccc(C#N)c1Cl`
Solution: 190

* * *

PROCEDURE DETAILS: Cmax in Sprague-Dawley rat at 1 mg/kg, iv
Type: ADME, organism-based
Parameters: dose 1 mg/kg, route intravenous
RUN PARAMETERS: in vivo
RECORDED METRIC: Cmax (ng/mL)
Give bare numbers, in ng/mL.

Exercise: Fill in reported Cmax for this entry: `Cc1c(N2[C@@H]3CC[C@H]2C[C@@](C)(O)C3)ccc(C#N)c1Cl`
Solution: 882

* * *

PROCEDURE DETAILS: Plasma concentration in Beagle dog at 10 mg/kg, po after 8 hrs
Assay type: ADME, organism-based, Canis lupus familiaris
Parameters: dose 10 mg/kg, route oral
RECORDED METRIC: concentration at 8 h
Number first, unit second: that is the form wanted.

Exercise: Fill in reported concentration at 8 h for this entry: `Cc1c(N2[C@@H]3CC[C@H]2C[C@@](C)(O)C3)ccc(C#N)c1Cl`
Solution: 60.6 ng/mL

* * *

PROCEDURE DETAILS: Metabolic stability in human hepatocyte assessed as half life
Assay type: ADME, cell-based, Liver
RUN PARAMETERS: hepatocytes
RECORDED METRIC: half-life

C[C@]1(O)C[C@H]2CC[C@@H](C1)N2c1ccc(C#N)c2ccccc12; 8.4 h

Hi! Can you tell me half-life for each of these compounds?
1. N#Cc1ccc(N2[C@@H]3CC[C@H]2C[C@@H](O)C3)c2ccccc12 (stereo in doubt; 2)
2. Cc1c(N2[C@@H]3CC[C@H]2C[C@@](C)(O)C3)ccc(C#N)c1Cl

Solution:
1: 0.05 h; 2: 5 h

* * *

Provide the reported CL of each item.
Tested on: Liver microsomes
PROCEDURE DETAILS: Metabolic stability in human liver microsomes assessed as intrinsic clearance
Format: ADME, Microsome
One number for each entry, in uL/ml.millig.

N#Cc1ccc(N2[C@@H]3CC[C@H]2C[C@@H](O)C3)c2ccccc12 (stereo in doubt; 2); 70
C[C@]1(O)C[C@H]2CC[C@@H](C1)N2c1ccc(C#N)c2ccccc12; 22
N#Cc1ccc(N2CCCC2)c2ccccc12; 528
N#Cc1ccc(N2[C@@H]3CC[C@H]2C[C@@H](O)C3)c2ccccc12 (stereo in doubt; 8); 7
Cc1c(N2[C@@H]3CC[C@H]2C[C@@](C)(O)C3)ccc(C#N)c1Cl; 28

Hi! Can you tell me CL for each of these molecules?
1. N#Cc1ccc(N2[C@H]3CCC[C@H]2CC3)c2ccccc12
2. N#Cc1ccc(N2[C@@H]3CC[C@H]2C[C@](O)(CO)C3)c2ccccc12
3. Cc1c(N2[C@@H]3CC[C@H]2C[C@@H](O)C3)ccc(C#N)c1Cl

Solution:
1: 114; 2: 28; 3: 69

Hi! Can you tell me CL for each of these molecules?
1. N#Cc1ccc(N2[C@@H]3CC[C@@H]2CC(=O)C3)c2ccccc12
2. C#C[C@]1(O)C[C@H]2CC[C@@H](C1)N2c1ccc(C#N)c2ccccc12

Solution:
49
19

* * *

PROCEDURE DETAILS: Clearance in Beagle dog at 1 mg/kg, iv
Format: ADME, organism-based, Canis lupus familiaris
Parameters: dose 1 mg/kg, route intravenous
RUN PARAMETERS: in vivo
RECORDED METRIC: clearance (mL/min/kg)
Give bare numbers, in mL/min/kg.

Exercise: Fill in reported clearance for this entry: `Cc1c(N2[C@@H]3CC[C@H]2C[C@@](C)(O)C3)ccc(C#N)c1Cl`
Solution: 42

* * *

PROCEDURE DETAILS: AUC (8 hrs) in Sprague-Dawley rat at 1 mg/kg, iv
Format: ADME, organism-based
Set-up: time < 8 hr, dose 1 mg/kg, route intravenous
RUN PARAMETERS: plasma
RECORDED METRIC: AUC at 8 h
Number first, unit second: that is the form wanted.

Exercise: Fill in reported AUC at 8 h for this entry: `Cc1c(N2[C@@H]3CC[C@H]2C[C@@](C)(O)C3)ccc(C#N)c1Cl`
Solution: 0.631 µg·h/mL
